# EXPERIMENTAL SYSTEM: T1, human IL-11Rα, FLAG-tagged, expressed at the surface of transiently transfected cells (human, UniProt Q14626 23-422)
# T1 construct: whole, on cells; also called IL-11Rα expressing HEK cells; FLAG-tagged human IL-11Rα; not shown: tag
# T1 sequence (looked up): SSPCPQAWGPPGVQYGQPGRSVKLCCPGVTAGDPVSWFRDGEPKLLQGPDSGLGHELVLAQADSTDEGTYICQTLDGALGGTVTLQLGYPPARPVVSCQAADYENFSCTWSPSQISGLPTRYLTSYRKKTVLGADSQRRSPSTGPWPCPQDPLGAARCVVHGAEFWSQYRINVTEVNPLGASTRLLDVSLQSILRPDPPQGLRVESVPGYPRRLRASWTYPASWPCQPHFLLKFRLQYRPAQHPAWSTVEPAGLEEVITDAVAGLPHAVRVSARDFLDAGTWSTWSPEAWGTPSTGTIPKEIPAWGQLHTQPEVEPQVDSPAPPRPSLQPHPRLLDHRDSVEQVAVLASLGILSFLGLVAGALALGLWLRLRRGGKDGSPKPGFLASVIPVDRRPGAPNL
# PROCEDURE TEXT: same assay; percent relative to the positive control anti-FLAG antibody (100%)
OBSERVED PROPERTY: % positive

{"columns": ["BINDER", "RECORDED VALUE"],
 "data": [
  ["BSO-10D11 (antibody, V domains shown, Mouse monoclonal from hybridoma) VH: QVQLQQSGTELVRPGTSVKMSCKAAGYTFTDYWIGWIKQRPGHGLEWIGDIFPGGDYTKCSERFKGKAKLTADTSSSTAYMQLSRLTSEDSAIYYCARRSTTIRFGAMDNWGQGTSVTVSS VL: DIQMTQSPSSLSASLGERVSLTCRASQEISAYLSWLQQKPDGTIKRLIYSTSTLDSGVPKRFSGSRSGSDYSLTISSLESEDFADYFCLQYASSPLTFGAGTKLELK", "42%"]
]}
